Reference source: patent US20230111363A1

# IgG column peak width values compiled below
- target: human serum polyclonal antibodies
- assay-overview: cross-interaction chromatography (CIC), column with human serum polyclonal IgG
Give the number; min is assumed, so skip it.

Example results:
anti-human MCT1 antibody Ab11 (antibody, human IgG1, kappa, V domains shown) VH: QVQLVQSGAEVKKPGASVKVSCTVSGRSLTNYHLQWVRQAPGQGLEWMGFIRSSGNTEYNSEFKSRVTMTRDTSTSTVYMELSSLRSEDTAVYYCARNRWHHGTYYSPGYYVMDAWGQGTLVTVSS VL: EIVLTQSPGTLSLSPGERATLSCKGSQNIENYLAWYQQKPGQAPRLLIYNRHNLQTGIPDRFSGSGSGTDFTLTISRLEPEDFAVYYCYQYSDGYTFGGGTKVEIKR : 1.57
anti-human MCT1 antibody Ab12 (antibody, human IgG1, kappa, V domains shown) VH: QVQLVQSGAEVKKPGASVKVSCTVSGRSLTNYHLVWVRQAPGQGLEWMGFIRSSGNTEYNSEFKSRVTMTRDTSTSTVYMELSSLRSEDTAVYYCARNRWYHGTYYSPGYYVMDAWGQGTLVTVSS VL: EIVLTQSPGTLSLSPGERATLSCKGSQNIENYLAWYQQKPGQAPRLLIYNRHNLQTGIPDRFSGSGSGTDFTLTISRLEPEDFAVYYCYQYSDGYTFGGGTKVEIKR : 1.46

IN: Would you mind telling me what IgG column peak width value was observed for anti-human MCT1 antibody Ab17 (antibody, human IgG1, kappa, V domains shown) VH: QVQLVQSGAEVKKPGASVKVSCTVSGRSLTNIHLQWVRQAPGQGLEWMGFIRSSGNTEYNSEFKSRVTMTRDTSTSTVYMELSSLRSEDTAVYYCARNRWYHGTYYSPGYYVMDAWGQGTLVTVSS VL: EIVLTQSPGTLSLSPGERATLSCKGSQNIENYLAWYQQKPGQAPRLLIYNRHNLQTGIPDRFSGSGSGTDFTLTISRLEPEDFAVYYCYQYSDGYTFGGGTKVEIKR ?
OUT: 1.36

IN: Quick one: anti-human MCT1 antibody Ab10 (antibody, human IgG1, kappa, V domains shown) VH: QVQLVQSGAEVKKPGASVKVSCTVSGRSLTGYHLQWVRQAPGQGLEWMGFIRSSGNTEYNSEFKSRVTMTRDTSTSTVYMELSSLRSEDTAVYYCARNRWYHGTYYSPGYYVMDAWGQGTLVTVSS VL: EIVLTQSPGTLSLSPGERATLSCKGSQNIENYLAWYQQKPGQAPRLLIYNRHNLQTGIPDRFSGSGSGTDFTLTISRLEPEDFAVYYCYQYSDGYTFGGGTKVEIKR
OUT: 1.44

IN: Quick one: anti-human MCT1 antibody Ab16 (antibody, human IgG1, kappa, V domains shown) VH: QVQLVQSGAEVKKPGASVKVSCTRSGRSLTNYHLQWVRQAPGQGLEWMGFIRSSGNTEYNSEFKSRVTMTRDTSTSTVYMELSSLRSEDTAVYYCARNRWYHGTYYSPGYYVMDAWGQGTLVTVSS VL: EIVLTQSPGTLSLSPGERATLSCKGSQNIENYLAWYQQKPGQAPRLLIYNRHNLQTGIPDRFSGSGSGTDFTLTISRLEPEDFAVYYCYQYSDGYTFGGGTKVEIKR
OUT: 1.89

IN: Quick one: anti-human MCT1 antibody Ab19 (antibody, human IgG1, kappa, V domains shown) VH: QVQLVQSGAEVKKPGASVKVSCTVSGRSLTNYHLQWVRQAPGQGLEWMGFIRRSGNTEYNSEFKSRVTMTRDTSTSTVYMELSSLRSEDTAVYYCARNRWYHGTYYSPGYYVMDAWGQGTLVTVSS VL: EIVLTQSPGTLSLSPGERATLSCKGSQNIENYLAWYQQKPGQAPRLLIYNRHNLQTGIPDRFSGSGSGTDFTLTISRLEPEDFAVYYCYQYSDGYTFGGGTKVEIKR
OUT: 1.94

IN: Quick one: anti-human MCT1 antibody Ab1 (antibody, human IgG1, kappa, V domains shown) VH: QVQLVQSGAEVKKPGASVKVSCTVSGFSLTNYHLQWVRQAPGQGLEWMGFIRSSGNTEYNSEFKSRVTMTRDTSTSTVYMELSSLRSEDTAVYYCARNSWYHGTYYSPGYYVMDAWGQGTLVTVSS VL: EIVLTQSPGTLSLSPGERATLSCKGSQNINNYLAWYQQKPGQAPRLLIYNRHNLQTGIPDRFSGSGSGTDFTLTISRLEPEDFAVYYCYQYSDGYTFGGGTKVEIKR
OUT: 1.5

IN: Quick one: anti-human MCT1 antibody Ab13 (antibody, human IgG1, kappa, V domains shown) VH: QVQLVQSGAEVKKPGASVKVSCTVSGRSLTNYHLQWVRQAPGQGLEWMGFIRSSGNTEYNSEFKSRVTMTRDTSTSTVYMELSSLRSEDTAVYYCARNRWRHGTYYSPGYYVMDAWGQGTLVTVSS VL: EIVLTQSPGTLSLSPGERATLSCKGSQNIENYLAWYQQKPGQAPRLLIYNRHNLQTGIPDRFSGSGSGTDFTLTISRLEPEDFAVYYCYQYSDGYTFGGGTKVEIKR
OUT: 1.63

IN: Quick one: anti-human MCT1 antibody Ab9 (antibody, human IgG1, kappa, V domains shown) VH: QVQLVQSGAEVKKPGASVKVSCTVSGRSLTNYHIQWVRQAPGQGLEWMGFIRSSGNTEYNSEFKSRVTMTRDTSTSTVYMELSSLRSEDTAVYYCARNRWYHGTYYSPGYYVMDAWGQGTLVTVSS VL: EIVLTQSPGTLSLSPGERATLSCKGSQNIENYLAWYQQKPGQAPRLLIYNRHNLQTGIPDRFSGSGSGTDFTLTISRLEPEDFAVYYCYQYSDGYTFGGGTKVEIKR
OUT: 1.46

IN: Quick one: anti-human MCT1 antibody Ab7 (antibody, human IgG1, kappa, V domains shown) VH: QVQLVQSGAEVKKPGASVKVSCTVSGRSRTNYHLQWVRQAPGQGLEWMGFIRSSGNTEYNSEFKSRVTMTRDTSTSTVYMELSSLRSEDTAVYYCARNRWYHGTYYSPGYYVMDAWGQGTLVTVSS VL: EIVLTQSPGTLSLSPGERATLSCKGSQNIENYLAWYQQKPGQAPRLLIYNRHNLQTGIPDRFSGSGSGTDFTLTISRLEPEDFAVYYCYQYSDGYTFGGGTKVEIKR
OUT: 1.79
